Documented pIC50 across a set of molecules
Target: various mutants of kinase EGFR (BaF3 cell lines stably transfected with kinase) (Homo sapiens, UniProt P00533, C797S/L858R/T790M)
Construct: expressed in transfected cells; host or cells: BaF3
Sequence (P00533 25-1210 T790M/C797S/L858R): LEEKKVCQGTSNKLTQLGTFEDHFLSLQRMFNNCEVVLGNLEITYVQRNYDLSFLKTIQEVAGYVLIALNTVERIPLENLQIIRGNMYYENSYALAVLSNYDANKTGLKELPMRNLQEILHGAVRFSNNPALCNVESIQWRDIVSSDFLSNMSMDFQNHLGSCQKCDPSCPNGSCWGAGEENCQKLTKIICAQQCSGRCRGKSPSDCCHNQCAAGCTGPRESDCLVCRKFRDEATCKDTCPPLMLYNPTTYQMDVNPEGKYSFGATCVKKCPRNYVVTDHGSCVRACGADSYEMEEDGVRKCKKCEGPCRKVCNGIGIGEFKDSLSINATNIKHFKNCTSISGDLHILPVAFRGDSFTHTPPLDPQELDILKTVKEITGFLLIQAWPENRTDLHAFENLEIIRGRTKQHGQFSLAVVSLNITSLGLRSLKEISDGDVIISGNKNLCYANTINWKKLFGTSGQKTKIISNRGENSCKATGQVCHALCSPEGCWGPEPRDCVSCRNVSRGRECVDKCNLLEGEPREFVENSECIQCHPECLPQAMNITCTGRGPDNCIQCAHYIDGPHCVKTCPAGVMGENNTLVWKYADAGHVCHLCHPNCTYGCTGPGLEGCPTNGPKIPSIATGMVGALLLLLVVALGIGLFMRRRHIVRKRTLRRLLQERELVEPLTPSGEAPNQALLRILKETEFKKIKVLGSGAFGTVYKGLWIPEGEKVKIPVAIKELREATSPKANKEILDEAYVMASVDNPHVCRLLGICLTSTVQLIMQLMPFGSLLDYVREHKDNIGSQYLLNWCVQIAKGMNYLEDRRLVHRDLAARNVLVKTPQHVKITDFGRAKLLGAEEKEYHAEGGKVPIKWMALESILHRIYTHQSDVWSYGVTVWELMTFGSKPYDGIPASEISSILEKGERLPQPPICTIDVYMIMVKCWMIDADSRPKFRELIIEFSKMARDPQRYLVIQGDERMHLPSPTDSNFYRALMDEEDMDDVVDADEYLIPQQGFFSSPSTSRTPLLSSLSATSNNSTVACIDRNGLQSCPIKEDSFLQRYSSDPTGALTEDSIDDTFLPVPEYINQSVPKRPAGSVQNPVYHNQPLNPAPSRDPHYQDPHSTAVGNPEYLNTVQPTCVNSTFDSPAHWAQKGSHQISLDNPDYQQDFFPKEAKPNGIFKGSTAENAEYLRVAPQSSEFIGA
Assay: Growth inhibitory activity of compounds on BaF3 cell lines stably transfected with kinase (MTS, 48 h)
Type: cell-based
Settings: BaF3 cells stably transfected with EGFR L858R/T790M/C797S, read-out: IC50, growth inhibition, L858R/T790M/C797S
pIC50: −log10 of the molar value.

molecule	pIC50
CN1CCN(C2CCN(c3ccc(Nc4ncc(Cl)c(Nc5ccc6nccnc6c5N(C)S(C)(=O)=O)n4)c(OC(F)(F)F)c3)CC2)CC1	6.30 to 7.30
CN(c1c(Nc2nc(Nc3cccc(N4CCC(O)CC4)c3)ncc2Br)ccc2nccnc12)S(C)(=O)=O	≥ 7.30
COc1cc(N2CCC(N3CCN(C)CC3)CC2)ccc1Nc1ncc(Br)c(Nc2ccc3nccnc3c2N(C)S(C)(=O)=O)n1	≥ 7.30
CCc1cc(Nc2ncc(Cl)c(Nc3ccc4nccnc4c3N(C)S(=O)(=O)C(F)(F)F)n2)c(OC)cc1N1CCN(C)CC1	6.30 to 7.30
COc1cc(N2CCC(N(C)C)C2)c(C)cc1Nc1ncc(Br)c(Nc2ccc3nccnc3c2N(C)S(=O)(=O)C2CC2)n1 (centres unmarked)	≥ 7.30
COc1cc(N2CCC(N3CCN(C)CC3)CC2)c(CC2CC2)cc1Nc1ncc(Cl)c(Nc2ccc3nccnc3c2N(C)S(=O)(=O)C(C)C)n1	6.30 to 7.30
CCc1cc(Nc2ncc(F)c(Nc3ccc4nccnc4c3N(C)S(C)(=O)=O)n2)c(OC)cc1N1CCC(N(C)C)C1 (centres unmarked)	6.30 to 7.30
C=Cc1cc(Nc2ncc(Br)c(Nc3ccc4nccnc4c3N(C)S(C)(=O)=O)n2)c(OC(F)(F)F)cc1N1CCC(N2CCN(C)CC2)CC1	≥ 7.30
CCc1cc(Nc2ncc(Cl)c(Nc3ccc4nccnc4c3N(C3CC3)S(C)(=O)=O)n2)c(OC)cc1N1CCC(N(C)C)C1 (centres unmarked)	≥ 7.30
COc1cc(N2CCC(N3CCN(C)CC3)CC2)c(CC2CC2)cc1Nc1ncc(C(F)(F)F)c(Nc2ccc3nccnc3c2N(C)S(C)(=O)=O)n1	6.30 to 7.30
CCc1cc(Nc2ncc(OC)c(Nc3ccc4nccnc4c3N(C)S(C)(=O)=O)n2)c(OC)cc1N1CCC(N(C)C)CC1	≥ 7.30
CCc1cc(Nc2ncc(C3CC3)c(Nc3ccc4nccnc4c3N(C)S(C)(=O)=O)n2)c(OC)cc1N1CCC(N(C)C)CC1	≥ 7.30
COc1cc(N2CCC(N3CCN(C)CC3)CC2)ccc1Nc1ncc(Br)c(Nc2ccc3nccnc3c2N(C)S(=O)(=O)C(F)(F)F)n1	6.30 to 7.30
COc1nc(N2CCN(C)CC2)ccc1Nc1ncc(Br)c(Nc2ccc3nccnc3c2N(C)S(C)(=O)=O)n1	6.30 to 7.30
CCc1cc(Nc2ncc(F)c(Nc3ccc4nccnc4c3N(C)S(C)(=O)=O)n2)c(OC)cc1N1CCC(N2CCN(C)CC2)CC1	≥ 7.30
COc1cc(N2CCC(N3CCN(C)CC3)CC2)c(C)cc1Nc1ncc(C#N)c(Nc2ccc3nccnc3c2N(C)S(C)(=O)=O)n1	6.30 to 7.30
CCc1cc(Nc2ncc(Br)c(Nc3ccc4nccnc4c3N(C)S(C)(=O)=O)n2)c(OC)nc1N1CCC(N2CCN(C)CC2)CC1	≥ 7.30
COc1ccc(N2CCC(O)CC2)cc1Nc1ncc(Br)c(Nc2ccc3nccnc3c2N(C)S(C)(=O)=O)n1	≥ 7.30
CCc1cc(Nc2ncc(Cl)c(Nc3ccc4nccnc4c3N(C)S(=O)(=O)C(C)C)n2)c(OC)nc1N1CCC(N2CCN(C)CC2)CC1	6.30 to 7.30
CCc1cc(Nc2ncc(C)c(Nc3ccc4nccnc4c3N(C)S(C)(=O)=O)n2)c(OC)nc1N1CCC(N2CCN(C)CC2)CC1	≥ 7.30
CN(c1c(Nc2nc(Nc3ccn(C)n3)ncc2Br)ccc2nccnc12)S(C)(=O)=O	6.30 to 7.30
CCc1cc(Nc2ncc(Cl)c(Nc3ccc4nccnc4c3N(C)S(=O)(=O)CC)n2)c(OC)cc1N1CCC(N2CCN(C)CC2)CC1	≥ 7.30
CN(c1c(Nc2nc(Nc3ccc(S(=O)(=O)NC4CC4)cc3)ncc2Br)ccc2nccnc12)S(C)(=O)=O	6.30 to 7.30
CN1CCN(C2CCN(c3cccc(Nc4ncc(Br)c(Nc5ccc6nccnc6c5N(C)S(C)(=O)=O)n4)c3)CC2)CC1	≥ 7.30
COc1cc(N2CCC(N(C)C)CC2)c(C)cc1Nc1ncc(F)c(Nc2ccc3nccnc3c2N(C)S(C)(=O)=O)n1	≥ 7.30
CCc1cc(Nc2ncc(Br)c(Nc3ccc4nccnc4c3N(CC)S(C)(=O)=O)n2)c(OC)cc1N1CCC(N2CCN(C)CC2)CC1	≥ 7.30

----------
Biological target: various mutants of kinase EGFR (BaF3 cell lines stably transfected with kinase) (Homo sapiens, UniProt P00533, T790M/C797S, form not given)
Construct: other: BaF3 cells stably transfected with EGFR Δ19Del/T790M/C797S; MTS, 48; other: BaF3 cell line stably transfected with EGFR Δ19Del/T790M/C7
Sequence (P00533 with tags, fused parts or gaps DEL746-750/T790M/C797S, form open): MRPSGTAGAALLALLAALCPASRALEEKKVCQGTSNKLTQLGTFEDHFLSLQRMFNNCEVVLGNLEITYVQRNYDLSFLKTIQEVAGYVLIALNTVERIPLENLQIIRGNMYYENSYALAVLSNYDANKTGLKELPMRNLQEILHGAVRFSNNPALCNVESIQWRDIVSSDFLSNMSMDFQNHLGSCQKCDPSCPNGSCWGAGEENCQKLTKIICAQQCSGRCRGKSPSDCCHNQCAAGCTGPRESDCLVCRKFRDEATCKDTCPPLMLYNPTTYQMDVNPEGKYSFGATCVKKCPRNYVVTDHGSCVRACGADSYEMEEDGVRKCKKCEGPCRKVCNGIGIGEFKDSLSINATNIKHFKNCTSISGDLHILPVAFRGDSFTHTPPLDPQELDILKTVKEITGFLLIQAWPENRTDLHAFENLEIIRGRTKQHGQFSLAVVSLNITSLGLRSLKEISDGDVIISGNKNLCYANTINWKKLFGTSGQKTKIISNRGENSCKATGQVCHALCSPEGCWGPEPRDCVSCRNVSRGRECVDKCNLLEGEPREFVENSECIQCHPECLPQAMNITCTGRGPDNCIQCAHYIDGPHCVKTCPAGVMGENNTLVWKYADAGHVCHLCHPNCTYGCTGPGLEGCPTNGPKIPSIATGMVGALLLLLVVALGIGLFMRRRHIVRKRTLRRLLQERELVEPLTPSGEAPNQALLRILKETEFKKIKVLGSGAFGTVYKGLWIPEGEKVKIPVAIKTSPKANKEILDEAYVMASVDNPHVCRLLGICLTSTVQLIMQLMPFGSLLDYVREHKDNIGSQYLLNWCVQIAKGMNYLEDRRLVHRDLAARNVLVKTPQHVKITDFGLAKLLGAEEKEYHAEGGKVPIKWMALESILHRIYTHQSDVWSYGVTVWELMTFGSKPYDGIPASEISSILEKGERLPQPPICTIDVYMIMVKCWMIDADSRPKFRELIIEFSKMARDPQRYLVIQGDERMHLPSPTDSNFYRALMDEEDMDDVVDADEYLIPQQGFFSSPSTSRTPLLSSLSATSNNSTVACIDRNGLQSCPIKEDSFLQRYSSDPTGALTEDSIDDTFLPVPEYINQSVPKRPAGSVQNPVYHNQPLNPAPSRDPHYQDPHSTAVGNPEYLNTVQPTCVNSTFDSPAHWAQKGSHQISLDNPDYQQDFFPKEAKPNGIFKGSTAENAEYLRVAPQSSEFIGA
Assay: Growth inhibitory activity of compounds on BaF3 cell lines stably transfected with kinase (MTS, 48 h)
Format: cell-based
Details: BaF3 cells stably transfected with EGFR Δ19Del/T790M/C797S, read-out: IC50, growth inhibition, Δ19Del/T790M/C797S

compound	IC50
CCc1cc(Nc2ncc([N+](=O)[O-])c(Nc3ccc4nccnc4c3N(C)S(C)(=O)=O)n2)c(OC)nc1N1CCC(N2CCN(C)CC2)CC1 [Compound I-190]	≤ 50 nM
COc1cc(N2CCN(C)CC2)c(C)cc1Nc1ncc(Br)c(Nc2ccc3nccnc3c2N(C)S(C)(=O)=O)n1 [Compound I-12]	≤ 50 nM
COc1cc(N2CCC(N(C)C)C2)c(C)cc1Nc1ncc(F)c(Nc2ccc3nccnc3c2N(C)S(C)(=O)=O)n1 (stereo not drawn) [Compound I-187]	50 to 500 nM

----------
Biological target: various mutants of kinase EGFR (BaF3 cell lines stably transfected with kinase) (Homo sapiens, UniProt P00533, C797S/L858R/T790M)
Construct: expressed in transfected cells; host or cells: BaF3
Test: Growth inhibitory activity of compounds on BaF3 cell lines stably transfected with kinase (MTS, 48 h)
Assay type: cell-based
Conditions: BaF3 cells stably transfected with EGFR L858R/T790M/C797S, read-out: IC50, growth inhibition, L858R/T790M/C797S
Consider the following compounds and their measured IC50 readings.

compound	IC50
CCc1cc(Nc2ncc(Br)c(Nc3ccc4nccnc4c3N(C)S(=O)(=O)CC)n2)c(OC)cc1N1CCC(N2CCN(C)CC2)CC1	≤ 50 nM
CN1CCN(Cc2cccc(Nc3ncc(Br)c(Nc4ccc5nccnc5c4N(C)S(C)(=O)=O)n3)c2)CC1	50 to 500 nM
COc1cc2c(cc1Nc1ncc(Br)c(Nc3ccc4nccnc4c3N(C)S(C)(=O)=O)n1)CN(C)CC2	50 to 500 nM
COc1cc(N2CCC(N(C)C)CC2)c(C)cc1Nc1ncc([N+](=O)[O-])c(Nc2ccc3nccnc3c2N(C)S(C)(=O)=O)n1	≤ 50 nM
COc1nc(N2CCC(N3CCN(C)CC3)CC2)ccc1Nc1ncc(F)c(Nc2ccc3nccnc3c2N(C)S(C)(=O)=O)n1	500 to 2500 nM
CCc1cc(Nc2ncc(OC)c(Nc3ccc4nccnc4c3N(C)S(C)(=O)=O)n2)c(OC(F)(F)F)cc1N1CCC(N2CCN(C)CC2)CC1	≤ 50 nM
CCN(c1c(Nc2nc(Nc3cc(C)c(N4CCC(N(C)C)CC4)cc3OC)ncc2Br)ccc2nccnc12)S(C)(=O)=O	≤ 50 nM
CCc1cc(Nc2ncc(C#N)c(Nc3ccc4nccnc4c3N(C)S(C)(=O)=O)n2)c(OC)cc1N1CCC(N2CCN(C)CC2)CC1	≤ 50 nM
CCc1cc(Nc2ncc(Br)c(Nc3ccc4nccnc4c3N(C)S(=O)(=O)CC)n2)c(OC(F)(F)F)cc1N1CCC(N2CCN(C)CC2)CC1	≤ 50 nM
CCc1cc(Nc2ncc(F)c(Nc3ccc4nccnc4c3N(C)S(C)(=O)=O)n2)c(OC(F)(F)F)cc1N1CCC(N2CCN(C)CC2)CC1	50 to 500 nM
COc1cc(N2CCC(N(C)C)C2)c(C)cc1Nc1ncc([N+](=O)[O-])c(Nc2ccc3nccnc3c2N(C)S(C)(=O)=O)n1 (stereo not shown)	50 to 500 nM
COc1cc(N2CCC(N3CCN(C)CC3)CC2)c(CC2CC2)cc1Nc1ncc(Cl)c(Nc2ccc3nccnc3c2N(C)S(=O)(=O)C2CC2)n1	50 to 500 nM
C=Cc1cc(Nc2ncc(Cl)c(Nc3ccc4nccnc4c3N(CC)S(C)(=O)=O)n2)c(OC(F)(F)F)cc1N1CCC(N2CCN(C)CC2)CC1	≤ 50 nM

----------
Target: various mutants of kinase EGFR (BaF3 cell lines stably transfected with kinase) (Homo sapiens, UniProt P00533, L858R/T790M)
Construct: expressed in transfected cells; host or cells: BaF3
Sequence (P00533 25-1210 T790M/L858R): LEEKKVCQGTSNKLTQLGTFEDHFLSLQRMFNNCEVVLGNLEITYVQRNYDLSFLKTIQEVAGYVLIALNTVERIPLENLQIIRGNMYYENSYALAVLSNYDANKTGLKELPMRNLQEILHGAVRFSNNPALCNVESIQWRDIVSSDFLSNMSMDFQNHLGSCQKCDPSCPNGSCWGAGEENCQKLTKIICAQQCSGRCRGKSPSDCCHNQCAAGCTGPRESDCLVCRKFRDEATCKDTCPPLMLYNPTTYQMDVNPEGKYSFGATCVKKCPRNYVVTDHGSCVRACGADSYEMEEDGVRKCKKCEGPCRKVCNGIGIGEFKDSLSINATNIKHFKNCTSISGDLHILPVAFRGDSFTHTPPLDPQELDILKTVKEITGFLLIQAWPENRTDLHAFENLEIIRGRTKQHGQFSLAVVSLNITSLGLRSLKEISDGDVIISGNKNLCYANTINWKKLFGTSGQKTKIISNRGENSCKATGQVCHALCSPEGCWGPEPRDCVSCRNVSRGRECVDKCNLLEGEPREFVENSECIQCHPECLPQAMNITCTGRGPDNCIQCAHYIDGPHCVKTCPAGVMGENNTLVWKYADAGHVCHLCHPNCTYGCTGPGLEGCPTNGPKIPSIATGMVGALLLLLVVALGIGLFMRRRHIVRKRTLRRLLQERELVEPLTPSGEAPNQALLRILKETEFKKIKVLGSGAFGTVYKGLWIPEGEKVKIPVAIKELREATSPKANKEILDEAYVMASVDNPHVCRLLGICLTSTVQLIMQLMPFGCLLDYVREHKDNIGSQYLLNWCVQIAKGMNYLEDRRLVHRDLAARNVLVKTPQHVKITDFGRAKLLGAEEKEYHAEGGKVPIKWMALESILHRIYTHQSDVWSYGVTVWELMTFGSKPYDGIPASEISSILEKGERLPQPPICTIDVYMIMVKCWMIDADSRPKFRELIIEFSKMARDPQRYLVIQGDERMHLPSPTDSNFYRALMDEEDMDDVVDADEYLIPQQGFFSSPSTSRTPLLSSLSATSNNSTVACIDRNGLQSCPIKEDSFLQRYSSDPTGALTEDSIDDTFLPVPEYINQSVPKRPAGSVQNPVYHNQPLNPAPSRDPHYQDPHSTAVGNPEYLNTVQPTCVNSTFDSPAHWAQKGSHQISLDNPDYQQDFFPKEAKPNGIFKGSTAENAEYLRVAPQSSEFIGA
Assay: Growth inhibitory activity of compounds on BaF3 cell lines stably transfected with kinase (MTS, 48 h)
Type: cell-based
Conditions: BaF3 cells stably transfected with EGFR L858R/T790M, read-out: IC50, growth inhibition, L858R/T790M
Reported IC50 is given for each of the following compounds.

compound	IC50
CCN(c1c(Nc2nc(Nc3cc(CC4CC4)c(N4CCC(N5CCN(C)CC5)CC4)cc3OC)ncc2Cl)ccc2nccnc12)S(C)(=O)=O [Compound I-229]	≤ 50 nM
COc1cc(N2CCC(O)CC2)ccc1Nc1ncc(Br)c(Nc2ccc3nccnc3c2N(C)S(C)(=O)=O)n1 [Compound I-44]	≤ 50 nM
COc1cc(N2CCC(N(C)C)C2)c(C)cc1Nc1ncc(C2CC2)c(Nc2ccc3nccnc3c2N(C)S(C)(=O)=O)n1 (centres unmarked) [Compound I-274]	50 to 500 nM
COc1cc(N2CCC(N3CCN(C)CC3)CC2)ccc1Nc1ncc(F)c(Nc2ccc3nccnc3c2N(C)S(C)(=O)=O)n1 [Compound I-24]	50 to 500 nM
CCc1cc(Nc2ncc(Br)c(Nc3ccc4nccnc4c3N(C)S(=O)(=O)C3CC3)n2)c(OC)cc1N1CCC(N(C)C)C1 (centres unmarked) [Compound I-108]	≤ 50 nM
COc1cc(N2CCC(N3CCN(C)CC3)CC2)c(C(C)C)cc1Nc1ncc(C2CC2)c(Nc2ccc3nccnc3c2N(C)S(C)(=O)=O)n1 [Compound I-291]	50 to 500 nM
COc1nc(N2CCC(N3CCN(C)CC3)CC2)ccc1Nc1ncc(Br)c(Nc2ccc3nccnc3c2N(C)S(C)(=O)=O)n1 [Compound I-4]	50 to 500 nM
CN(c1c(Nc2nc(Nc3ccc(S(=O)(=O)NC4CC4)cc3)ncc2Br)ccc2nccnc12)S(C)(=O)=O [Compound I-50]	≤ 50 nM
COc1cc(N2CCC(N(C)C)C2)c(C)cc1Nc1ncc(Cl)c(Nc2ccc3nccnc3c2N(C2CC2)S(C)(=O)=O)n1 (centres unmarked) [Compound I-246]	≤ 50 nM
CCc1cc(Nc2ncc(Cl)c(Nc3ccc4nccnc4c3N(C)S(=O)(=O)C(F)(F)F)n2)c(OC)cc1N1CCN(C)CC1 [Compound I-267]	50 to 500 nM
CCN(c1c(Nc2nc(Nc3ccc(N4CCC(N5CCN(C)CC5)CC4)cc3OC)ncc2Cl)ccc2nccnc12)S(C)(=O)=O [Compound I-224]	≤ 50 nM
CCc1cc(Nc2ncc(Cl)c(Nc3ccc4nccnc4c3N(C)S(=O)(=O)C(C)C)n2)c(OC)nc1N1CCC(N2CCN(C)CC2)CC1 [Compound I-253]	50 to 500 nM
CCc1cc(Nc2ncc(Cl)c(Nc3ccc4nccnc4c3N(C)S(=O)(=O)C3CC3)n2)c(OC)cc1N1CCC(N(C)C)C1 (centres unmarked) [Compound I-123]	≤ 50 nM
CCc1cc(Nc2ncc(Br)c(Nc3ccc4nccnc4c3N(C)S(=O)(=O)C(C)C)n2)c(OC)cc1N1CCC(N2CCN(C)CC2)CC1 [Compound I-135]	≤ 50 nM
CCc1cc(Nc2ncc(F)c(Nc3ccc4nccnc4c3N(C)S(=O)(=O)C3CC3)n2)c(OC)cc1N1CCC(N(C)C)CC1 [Compound I-252]	≤ 50 nM
CCc1cc(Nc2ncc(Cl)c(Nc3ccc4nccnc4c3N(CC)S(C)(=O)=O)n2)c(OC)cc1N1CCC(N(C)C)CC1 [Compound I-112]	≤ 50 nM
CCc1cc(Nc2ncc(Cl)c(Nc3ccc4nccnc4c3N(C)S(=O)(=O)C3CC3)n2)c(OC(F)(F)F)cc1N1CCC(N2CCN(C)CC2)CC1 [Compound I-121]	50 to 500 nM
CCc1cc(Nc2ncc(Br)c(Nc3ccc4nccnc4c3N(CC)S(C)(=O)=O)n2)c(OC)cc1N1CCC(N(C)C)CC1 [Compound I-97]	≤ 50 nM
CN1CCc2cc(OC(F)(F)F)c(Nc3ncc(Br)c(Nc4ccc5nccnc5c4N(C)S(C)(=O)=O)n3)cc2C1 [Compound I-90]	500 to 2500 nM
CCc1cc(Nc2ncc(Br)c(Nc3ccc4nccnc4c3N(CC)S(C)(=O)=O)n2)c(OC)cc1N1CCC(N2CCN(C)CC2)CC1 [Compound I-95]	≤ 50 nM
COc1cc(N2CCC(N3CCN(C)CC3)CC2)ccc1Nc1ncc(Cl)c(Nc2ccc3nccnc3c2N(C)S(=O)(=O)C(F)(F)F)n1 [Compound I-261]	50 to 500 nM
COc1cc(N2CCN(C)CC2)c(C)cc1Nc1ncc(Br)c(Nc2ccc3nccnc3c2N(C)S(C)(=O)=O)n1 [Compound I-12]	≤ 50 nM
CCc1cc(Nc2ncc(C(F)(F)F)c(Nc3ccc4nccnc4c3N(C)S(C)(=O)=O)n2)c(OC)cc1N1CCC(N(C)C)CC1 [Compound I-206]	≤ 50 nM
CCc1cc(Nc2ncc(Cl)c(Nc3ccc4nccnc4c3N(C3CC3)S(C)(=O)=O)n2)c(OC)cc1N1CCC(N(C)C)CC1 [Compound I-162]	≤ 50 nM
COc1cc(N2CCC(N(C)C)CC2)c(C)cc1Nc1ncc(F)c(Nc2ccc3nccnc3c2N(C)S(C)(=O)=O)n1 [Compound I-183]	≤ 50 nM
CCc1cc(Nc2ncc(Br)c(Nc3ccc4nccnc4c3N(C)S(C)(=O)=O)n2)c(OC)cc1N1CCC(N2CCN(C)CC2)CC1 [Compound I-3]	≤ 50 nM
